These data points were gathered from paper PMC8494293.

Target: the molecule itself
Assay: cross-linking; in vitro BMOE (1 mM) cysteine cross-linking, 10 uM ParB, with or without 1 mM CTP or CTPγS and 1 uM 40-bp parS DNA, 150 mM NaCl, 50 mM tris-HCl pH 7.5, 5 mM MgCl2, room temperature; SDS-PAGE, Coomassie

protein	binding result
ParB(T22C) (natural protein, B. subtilis, UniProt P26497 1-282, looked up, ParB, B. subtilis, untagged recombinant protein with a cysteine at the N-gate; source: E. coli BL21-Gold (DE3), purified (ammonium sulfate, heparin, HiTrap SP, Superdex 200)) MAKGLGKGINALFNQVDLSEECVEEIKIADLRPNPYQPRKHFDDEALAELKESVLQHGILQPLIVRKSLKGYDIVAGERRFRAAKLAGLDTVPAIVRELSEALMREIALLENLQREDLSPLEEAQAYDSLLKHLDLTQEQLAKRLGKSRPHIANHLRLLTLPENIQQLIAEGTLSMGHGRTLLGLKNKNKLEPLVQKVIAEQLNVRQLEQLIQQLNQNVPRETKKKEPVKDAVLKERESYLQNYFGTTVNIKRQKKKGKIEIEFFSNEDLDRILELLSERES	binds
ParB(T22C, E78Q) (natural protein, B. subtilis, UniProt P26497 1-282, looked up, ParB, B. subtilis, untagged recombinant protein, CTP hydrolysis-defective mutant with the T22C reporter cysteine; source: E. coli BL21-Gold (DE3), purified (ammonium sulfate, heparin, HiTrap SP, Superdex 200)) MAKGLGKGINALFNQVDLSEECVEEIKIADLRPNPYQPRKHFDDEALAELKESVLQHGILQPLIVRKSLKGYDIVAGQRRFRAAKLAGLDTVPAIVRELSEALMREIALLENLQREDLSPLEEAQAYDSLLKHLDLTQEQLAKRLGKSRPHIANHLRLLTLPENIQQLIAEGTLSMGHGRTLLGLKNKNKLEPLVQKVIAEQLNVRQLEQLIQQLNQNVPRETKKKEPVKDAVLKERESYLQNYFGTTVNIKRQKKKGKIEIEFFSNEDLDRILELLSERES	binds
